In this section we review reported koff values for a set of binders.
Target: T1, human common cytokine receptor γ-chain (IL-2Rγ) (human, UniProt P31785 23-262, limits assumed)
T1 construct: Recombinant human IL-2Rγ protein, coated (ELISA) or amine-coupled to a CM5 chip (SPR); also called hu IL-2R; CD132
T1 sequence: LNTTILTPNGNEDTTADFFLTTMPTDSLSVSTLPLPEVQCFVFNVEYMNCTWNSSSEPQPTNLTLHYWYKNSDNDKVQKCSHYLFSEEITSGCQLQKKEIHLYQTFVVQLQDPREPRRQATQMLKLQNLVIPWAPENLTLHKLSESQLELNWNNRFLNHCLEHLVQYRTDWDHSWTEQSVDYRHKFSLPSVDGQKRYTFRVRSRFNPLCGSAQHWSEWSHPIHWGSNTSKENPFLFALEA
Assay: P.E. off-rate SPR
State the answer as a number, implicitly in s⁻¹.

{"columns": ["BINDER", "VALUE MEASURED"],
 "data": [
  ["FJ1427_P035MP07B09 (VHH, tested as periplasmic extract; also called Clone nr) VHH: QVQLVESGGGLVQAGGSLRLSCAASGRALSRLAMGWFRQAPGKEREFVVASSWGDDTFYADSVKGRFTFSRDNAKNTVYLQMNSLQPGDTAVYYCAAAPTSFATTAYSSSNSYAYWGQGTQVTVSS", 0.00168]
]}

Summary for this binder, FJ1427_P035MP07B08 (VHH, tested as periplasmic extract; also called Clone nr; 634) VHH: EVQLVESGGGSVQPGGSLRLSCAASGRTLSRYAMGWFRQAPGKEREFVTANSWGGDTYYADSVQGRFTFSRDNAKNTVYLQMNSLQPEDTAVYYCAAAPTSFATTAYSSSNSYAYWGQGTQVTVSS : koff is 0.00326
